vaccinia virus TOP1 (vaccinia DNA Topoisomerase I) (Vaccinia virus WR, UniProt P68698) pKd data
# reply with the number alone; pKd is -log10 of concentration in mol/L

>  <Compound>
C[C@@H]1O[C@@H](Oc2c(-c3cc(O)c(O)c(O)c3)oc3cc(O)cc(O)c3c2=O)[C@H](O)[C@H](O)[C@H]1O

>  <pKd>
5.45

$$$$
>  <Compound>
O=C(/C=C/c1ccc(O)c(O)c1)O[C@H](Cc1ccc(O)c(O)c1)C(=O)O

>  <pKd>
5.67

$$$$
>  <Compound>
CC1COc2c(N3CCN(C)CC3)c(F)cc3c(=O)c(C(=O)O)cn1c23 (stereo not shown)

>  <pKd>
5.26

$$$$

--- query ---
Quick check: pKd of C[C@@H]1O[C@@H](Oc2c(-c3ccc(O)c(O)c3)oc3cc(O)cc(O)c3c2=O)[C@H](O)[C@H](O)[C@H]1O ? 5.32
